System: HEK293T cells carrying the ATF4 luciferase reporter
test_protocol: ATF4-Luc assay (in vitro model of vanishing white matter disease)
Type: cell-based, human
measurement_setup: Homo sapiens, HEK-293T; HEK293T cells with ATF4 5'-UTR firefly luciferase reporter; 1 μg/mL tunicamycin; 7 hours; One Glo luminescence
pEC50: −log10 of the molar value.
Listing: pEC50 of selected compounds
outcome_measure: pEC50

1. O=C(COc1ccc(Cl)c(F)c1)NC12CC(N3CCC(Oc4ccc(Cl)c(F)c4)C3=O)(C1)C2 (stereo not shown) [Compound 100]    6.60 to 7.30
2. O=C(N[C@H]1CC[C@H](N2CCN(c3ccc(C(F)F)cn3)C2=O)CC1)c1ccc(Cl)c(F)c1 [Compound 123]    < 5.70
3. O=C(CCOc1ccc(Cl)cc1)N[C@H]1CC[C@H](N2CCN(c3cnc(C(F)F)cn3)C2=O)CC1 [Compound 118]    < 5.70
4. O=C(N[C@H]1CC[C@H](N2CCN(c3ccc(C(F)F)cn3)C2=O)CC1)c1ccc(OC(F)(F)F)cn1 [Compound 124]    < 5.70
5. O=C(COc1ccc(F)c(Cl)c1)NC12CC(N3Cc4ccccc4C3=O)(C1)C2 [Compound 117]    6.60 to 7.30
6. O=C(COc1ccc(Cl)c(F)c1)NC12CCC(N3CC[C@@H](c4ccc(Cl)cc4)C3=O)(CC1)C[C@@H]2O (single isomer, unassigned) [Compound 154]    6.00 to 6.60
7. O=C(COc1ccc(Cl)c(F)c1)NC12CC(N3C(=O)c4cc(Cl)ccc4[C@H]3O)(C1)C2 (single isomer, unassigned) [Compound 151]    < 5.70
8. Cn1cc(OC2CCN(C34CC(NC(=O)COc5ccc(Cl)c(F)c5)(C3)C4)C2=O)cn1 (stereo not shown) [Compound 106]    < 5.70
9. O=C(COc1ccc(F)c(F)c1)N[C@H]1CC[C@H](N2CCN(c3ccc(C(F)F)cn3)C2=O)CC1 [Compound 126]    > 7.30
10. O=C(COc1ccc(Cl)c(F)c1)NC12CC(N3CC(c4ccc(Cl)c(F)c4)=CC3=O)(C1)C2 [Compound 165]    > 7.30
11. O=C(COc1ccc(Cl)c(F)c1)NC12CC(N3C[C@@H](c4ccc(Cl)c(F)c4)OC3=O)(C1)C2 (single isomer, unassigned) [Compound 157]    6.60 to 7.30
12. Cc1cc(OC2CCN(C34CC(NC(=O)COc5ccc(Cl)c(F)c5)(C3)C4)C2=O)no1 (stereo not shown) [Compound 105]    < 5.70
13. O=C(COc1ccc(Cl)c(F)c1)NC12CCC(N3CCN(c4ccc(Cl)c(F)c4)C3=O)(CC1)CC2O (stereo not shown) [Compound 146]    > 7.30
14. O=C(COc1ccc(Cl)c(F)c1)N[C@H]1CC[C@H](N2CCN(c3ccc(C(F)F)nc3)C2=O)CC1 [Compound 142]    > 7.30
15. O=C(N[C@H]1CC[C@H](N2CCN(c3cnc(C(F)F)cn3)C2=O)CC1)OCc1ccccc1 [Compound 122]    < 5.70
16. O=C(COc1ccc(Cl)c(F)c1)N[C@H]1CC[C@H](N2CCN(c3ccc(C(F)F)cn3)C2=O)CC1 [Compound 133]    > 7.30
17. O=C(COc1ccc(Cl)c(F)c1)NC12CC(N3CC(c4ccc(Cl)c(F)c4)CC3=O)(C1)C2 (stereo not shown) [Compound 159]    > 7.30
18. O=C(COc1ccc(Cl)c(F)c1)N[C@H]1CC[C@H](N2CCN(c3ccccn3)C2=O)CC1 [Compound 130]    > 7.30
19. O=C(COc1ccc2c(c1)OC(F)(F)O2)N[C@H]1CC[C@H](N2CCN(c3ccc(C(F)F)cn3)C2=O)CC1 [Compound 128]    6.60 to 7.30
20. O=C(N[C@H]1CC[C@H](N2CCN(c3ccc(C(F)F)cn3)C2=O)CC1)OCc1ccccc1 [Compound 129]    < 5.70
21. O=C(COc1ccc(Cl)c(F)c1)NC12CC(N3Cc4cc5ccccc5cc4C3=O)(C1)C2 [Compound 168]    6.00 to 6.60
22. O=C(COc1ccc(Cl)c(F)c1)NC12CC(N3C(=O)c4ccc(Cl)cc4[C@H]3O)(C1)C2 (single isomer, unassigned) [Compound 149]    6.00 to 6.60
23. O=C(COc1ccc(Cl)c(F)c1)NC12CC(n3c(=O)[nH]c4cc(Cl)ccc4c3=O)(C1)C2 [Compound 140]    6.00 to 6.60
24. O=C(COc1ccc(Cl)c(F)c1)NC12CC(N3CCC(c4ccc(F)c(F)c4)OC3=O)(C1)C2 (stereo not shown) [Compound 112]    < 5.70
25. O=C(COc1ccc(Cl)c(F)c1)NC12CC(N3C[C@H](c4ccc(Cl)c(F)c4)OC3=O)(C1)C2 (single isomer, unassigned) [Compound 156]    6.00 to 6.60
26. O=C(COc1ccc(Cl)c(F)c1)NC12CC(N3CC[C@@H](Oc4ccc(Cl)cc4)C3=O)(C1)C2 (single isomer, unassigned) [Compound 102]    6.00 to 6.60
27. O=C(COc1ccc(Cl)c(F)c1)N[C@H]1CC[C@H](N2CCN(c3ccc(OC(F)(F)F)cn3)C2=O)CC1 [Compound 141]    6.60 to 7.30
28. O=C(COc1ccc(Cl)c(F)c1)NC12CC(N3CCN(c4ccc(Cl)c(F)c4)C3=O)(C1)C2 [Compound 108]    > 7.30

---

System: HEK293T cells carrying the ATF4 luciferase reporter
test_protocol: ATF4-Luc assay (in vitro model of vanishing white matter disease)
Assay type: cell-based, human
measurement_setup: Homo sapiens, HEK-293T; HEK293T cells with ATF4 5'-UTR firefly luciferase reporter; 1 μg/mL tunicamycin; 7 hours; One Glo luminescence
outcome_measure: EC50

1. O=C(COc1ccc(Cl)c(F)c1)N[C@H]1CC[C@H](N2CCN(c3ccc(C(F)(F)F)cn3)C2=O)CC1    < 0.05 µM
2. O=C(COc1ccc(Cl)c(F)c1)NC12CC(N3C(=O)OC[C@@H]3c3ccc(Cl)c(Cl)c3)(C1)C2    > 2 µM
3. O=C(COc1ccc(Cl)c(F)c1)NC12CCC(N3CC[C@H](c4ccc(Cl)cc4)C3=O)(CC1)C[C@@H]2O (single isomer, unassigned)    < 0.05 µM

---

Test system: HEK293T cells carrying the ATF4 luciferase reporter
test_protocol: ATF4-Luc assay (in vitro model of vanishing white matter disease)
Format: cell-based, human
measurement_setup: Homo sapiens, HEK-293T; HEK293T cells with ATF4 5'-UTR firefly luciferase reporter; 1 μg/mL tunicamycin; 7 hours; One Glo luminescence
pEC50: −log10 of the molar value.
outcome_measure: pEC50

1. O=C(COc1ccc(Cl)c(F)c1)NC12CC(N3C(=O)c4ccc(Cl)cc4[C@@H]3O)(C1)C2 (single isomer, unassigned)    5.70 to 6.00
2. O=C(COc1ccc(Cl)c(F)c1)NC12CC(n3c(=O)c4ccc(Cl)cc4n(CCO)c3=O)(C1)C2    6.60 to 7.30
3. O=C(NC12CC(N3CC(c4ccc(Cl)c(F)c4)OC3=O)(C1)C2)c1cc(C(F)F)no1 (stereo not shown)    < 5.70
4. O=C(COc1ccc(Cl)c(F)c1)NC12CCC(N3CC(c4ccc(Cl)cc4)OC3=O)(CC1)CC2O (stereo not shown)    6.60 to 7.30
5. O=C(COc1ccc(Cl)c(F)c1)NC12CCC(N3CC(c4ccc(Cl)c(F)c4)=CC3=O)(CC1)C[C@@H]2O    > 7.30
6. O=C(COc1ccc(Cl)c(F)c1)NC12CC(N3CCN(c4ccc(Cl)cc4)C3=O)(C1)C2    > 7.30
7. O=C(COc1ccc(Cl)c(F)c1)N[C@H]1CC[C@H](N2CCN(c3ccc(Cl)cc3)C2=O)CC1    > 7.30
8. O=C(COc1ccc(Cl)c(F)c1)N[C@H]1CC[C@H](N2CCN(c3ccc(C(F)(F)F)nc3)C2=O)CC1    > 7.30
9. O=C(COc1ccc(Cl)c(F)c1)NC12CC(N3CC(c4ccc(Cl)cc4)COC3=O)(C1)C2 (stereo not shown)    6.00 to 6.60
10. O=C(COc1ccc(OC(F)(F)F)cc1)N[C@H]1CC[C@H](N2CCN(c3ccc(C(F)F)cn3)C2=O)CC1    6.00 to 6.60

---

Tested on: HEK293T cells carrying the ATF4 luciferase reporter
test_protocol: ATF4-Luc assay (in vitro model of vanishing white matter disease)
Type: cell-based, human
measurement_setup: Homo sapiens, HEK-293T; HEK293T cells with ATF4 5'-UTR firefly luciferase reporter; 1 μg/mL tunicamycin; 7 hours; One Glo luminescence
Listing: EC50 of selected molecules
outcome_measure: EC50

1. O=C(COc1ccc(Cl)c(F)c1)NC12CC(N3CCN(c4ccc(Cl)cn4)C3=O)(C1)C2    < 50 nM
2. O=C(COc1ccc(Cl)c(Cl)c1)NC12CC(N3CCN(Cc4ccc(Cl)cc4)C3=O)(C1)C2    > 2000 nM
3. O=C(COc1ccc(Cl)c(F)c1)NC12CC(N3CCN(c4ccc(C(F)F)cn4)C3=O)(C1)C2    < 50 nM
4. O=C(COc1ccc(Cl)c(F)c1)NC12CC(C3=NC(c4ccc(Cl)cc4)CO3)(C1)C2 (stereo not shown)    250 to 1000 nM
